Data credit: ChEMBL document CHEMBL1201862

Tested on: CCRF-CEM
ASSAY NAME: NCI tumour cell line growth inhibition, 48 h
The source made the active and inactive calls. Rule as the data show it: active = GI50 up to about 1.1 µM and inactive = higher.
Respond only with the outcome that fits, drawn from active, inactive

COMPOUND | CLASS ASSIGNMENT
CCOC(=O)c1cc(-c2ccn(C(C)=O)c2)c(-c2cc(C)co2)[nH]1 | inactive
CC(=O)O[C@@H]1C=C(C)[C@H](CBr)O[C@@]2(C)CC[C@H](Br)C(C)(C)[C@H]12 | inactive
COc1ccc(/C=C2\CCC(C)/C(=C\c3ccc(OC)c(OC)c3)C2=O)cc1OC (centres undefined) | inactive
Cc1cccc(Nc2nn3c(=O)c4c5c(sc4nc3s2)CCCC5)c1 | inactive
O=[N+]([O-])c1ccc(Cl)c(C2SCc3nc4ccccc4n32)c1 (centres undefined) | inactive
CC(=O)O[C@H]1C(=O)[C@@]2(C)C(C(OC(=O)c3ccccc3)[C@]3(O)CC(OC(=O)C(O)C(NC(=O)c4ccccc4)c4ccc(C)cc4)C(C)=C1C3(C)C)[C@]1(OC(C)=O)CO[C@@H]1C[C@@H]2O (some centres undefined) | active
CCN(CC)CCCNC(=O)c1cc(-c2nccn2C)nc2ccccc12 | inactive
NC(=O)N=C(N(Cc1ccccc1)Cc1ccccc1)N(Cc1ccccc1)Cc1ccccc1 | inactive
COC(=O)C1=C(C=O)C2C=CC1C2 (centres undefined) | inactive
Nc1nc(N)c2ncn(Cc3ccccc3CCl)c2n1 | inactive

With those in mind, consider the next compound.
Field: outcome | Entry: `N#Cc1[nH]c(=S)[nH]c1N` inactive
